- assayedSystem: UniProt:Q92731
- protocolDetails: R-SAT functional assay, ERβ
- Assay type: cell-based
- Set-up: expressed in transfected cells; host or cells: transient transfection
- reportedConditions: NIH3T3; NIH-3T3 cells; read-out: R-SAT Erβ % Eff

- chemicalSmiles: "Oc1ccc(C2(c3ccccc3Cl)CCCCC2)cc1"
  Emax: "73%"
- chemicalSmiles: "Oc1ccc(C2(c3ccccc3F)CCCCC2)cc1"
  Emax: "69%"
- chemicalSmiles: "Oc1ccc(C2(c3ccccc3)CCCCC2)cc1"
  Emax: "71%"
- chemicalSmiles: "Oc1ccc(C2(c3ccccc3Cl)CCC(F)(F)CC2)cc1"
  Emax: "42%"

###

- assayedSystem: ERβ (Homo sapiens, UniProt Q92731)
- Sequence (Q92731 whole entry, species assumed): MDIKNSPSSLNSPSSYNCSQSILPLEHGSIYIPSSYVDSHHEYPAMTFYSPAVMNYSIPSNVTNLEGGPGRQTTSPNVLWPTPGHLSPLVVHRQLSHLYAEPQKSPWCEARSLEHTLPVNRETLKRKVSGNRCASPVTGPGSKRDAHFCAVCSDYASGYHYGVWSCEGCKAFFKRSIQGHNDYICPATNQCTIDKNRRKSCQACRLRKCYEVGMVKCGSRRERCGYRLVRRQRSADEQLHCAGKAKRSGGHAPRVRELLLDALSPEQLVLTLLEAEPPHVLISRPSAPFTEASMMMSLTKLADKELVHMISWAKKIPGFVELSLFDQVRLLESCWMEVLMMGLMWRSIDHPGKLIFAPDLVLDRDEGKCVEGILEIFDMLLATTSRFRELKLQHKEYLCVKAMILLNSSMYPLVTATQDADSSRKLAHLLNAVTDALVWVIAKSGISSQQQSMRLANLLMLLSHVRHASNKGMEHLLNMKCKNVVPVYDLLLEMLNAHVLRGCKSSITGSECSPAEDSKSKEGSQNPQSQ
pKi: −log10 of the molar value.
Label YES for high-side pKi (at or above 8) and NO for low-side pKi (below it).

- chemicalSmiles: "Oc1ccc(C2(c3ccccc3F)CCC(F)(F)CC2)cc1F"
  group: "YES"
- chemicalSmiles: "Oc1ccc(C2(c3ccccc3Cl)CCCCC2)cc1"
  group: "NO"
- chemicalSmiles: "Oc1ccc(C2(c3ccccc3Cl)CCC(F)(F)CC2)cc1"
  group: "YES"
- chemicalSmiles: "Oc1ccc(C2(c3ccccc3Cl)CCC(F)(F)CC2)cc1F"
  group: "YES"
- chemicalSmiles: "Oc1ccc(C2(c3ccccc3F)CCCCC2)cc1"
  group: "NO"
- chemicalSmiles: "Oc1ccc(C2(c3ccccc3)CCCCC2)cc1"
  group: "NO"

###

- protocolDetails: Bioavailability after intravenous and sublingual administration in male beagle dogs
- Type: in vivo
- reportedConditions: male, beagle, dog, plasma, 10 mg/kg, dog, sublingual, as summarised; read-out: half life (converted)

- chemicalSmiles: "Oc1ccc(C2(c3ccccc3F)CCC(F)(F)CC2)cc1"
  half-life [h]: 2

###

- protocolDetails: Non-specific binding assessment across tissue-free inserts
- Format: in vitro ADME
- reportedConditions: tissue-free insert, DPBS, read-out: apparent permeability coefficient (Papp) through cell-free insert
Measured Papp at 120 min, 1 μM, listed per entry.

- chemicalSmiles: "Oc1ccc(C2(c3ccccc3Cl)CCCCC2)cc1F"
  readoutUnits: "×10⁻⁶ cm/s"
  Papp at 120 min, 1 μM: 0.881
- chemicalSmiles: "Oc1ccc(C2(c3cccc(F)c3Cl)CCCCC2)cc1"
  readoutUnits: "×10⁻⁶ cm/s"
  Papp at 120 min, 1 μM: 1.17
- chemicalSmiles: "Oc1ccc(C2(c3ccccc3F)CCC(F)(F)CC2)cc1"
  readoutUnits: "×10⁻⁶ cm/s"
  Papp at 120 min, 1 μM: 19.8

###

- assayedSystem: ERα (Homo sapiens)
- Sequence (P03372 1-595): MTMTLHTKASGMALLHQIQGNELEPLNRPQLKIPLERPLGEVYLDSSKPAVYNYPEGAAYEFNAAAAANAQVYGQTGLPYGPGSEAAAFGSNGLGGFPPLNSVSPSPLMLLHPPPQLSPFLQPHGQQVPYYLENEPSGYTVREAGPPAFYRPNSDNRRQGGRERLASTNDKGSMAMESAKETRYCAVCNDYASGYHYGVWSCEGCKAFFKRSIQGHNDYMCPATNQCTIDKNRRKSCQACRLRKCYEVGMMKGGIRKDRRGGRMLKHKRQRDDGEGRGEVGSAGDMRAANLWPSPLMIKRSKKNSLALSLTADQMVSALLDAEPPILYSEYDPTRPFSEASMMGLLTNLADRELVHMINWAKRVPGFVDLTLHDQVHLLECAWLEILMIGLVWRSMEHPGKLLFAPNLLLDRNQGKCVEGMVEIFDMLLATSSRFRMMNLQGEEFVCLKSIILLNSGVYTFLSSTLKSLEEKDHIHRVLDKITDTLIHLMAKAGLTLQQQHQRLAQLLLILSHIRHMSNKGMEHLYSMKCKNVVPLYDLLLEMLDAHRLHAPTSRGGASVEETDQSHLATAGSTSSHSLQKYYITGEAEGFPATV
- protocolDetails: Luciferase reporter gene assay (3*ERE) in HEK293 cells, ERα
- Assay type: cell-based
- Set-up: expressed in transfected cells; host or cells: transient transfection
- reportedConditions: 48 hours
Measured Luciferase Erα % Eff, listed per entry.
experimentalEndpoint: Luciferase Erα % Eff (%)

- compound: "Oc1ccc(C2(c3ccccc3Cl)CCC(F)(F)CC2)cc1 [Compound 12]"
  assayedSystem: "ERα (Homo sapiens)"
  readoutUnits: "%"
  testValue: 30
- compound: "Oc1ccc(C2(c3ccccc3)CCCCC2)cc1 [Compound 131]"
  assayedSystem: "ERα (Homo sapiens)"
  readoutUnits: "%"
  testValue: 29
- compound: "Oc1ccc(C2(c3ccccc3F)CCCCC2)cc1 [Compound 152]"
  assayedSystem: "ERα (Homo sapiens)"
  readoutUnits: "%"
  testValue: 48
- compound: "Oc1ccc(C2(c3cccc(F)c3Cl)CCCCC2)cc1 [Compound 623]"
  assayedSystem: "ERα (Homo sapiens)"
  readoutUnits: "%"
  testValue: 15
- compound: "Oc1ccc(C2(c3ccccc3Cl)CCC(F)(F)CC2)cc1F [Compound 14]"
  assayedSystem: "ERα (Homo sapiens)"
  readoutUnits: "%"
  testValue: 82
- compound: "Oc1ccc(C2(c3ccccc3F)CCC(F)(F)CC2)cc1 [Compound 8]"
  assayedSystem: "ERα (Homo sapiens)"
  readoutUnits: "%"
  testValue: 32
- compound: "Oc1ccc(C2(c3ccccc3Cl)CCCCC2)cc1 [Compound 558]"
  assayedSystem: "ERα (Homo sapiens)"
  readoutUnits: "%"
  testValue: 37
- compound: "Oc1ccc(C2(c3ccccc3Cl)CCCCC2)cc1F [Compound 957]"
  assayedSystem: "ERα (Homo sapiens)"
  readoutUnits: "%"
  testValue: 13
- compound: "Oc1ccc(C2(c3ccccc3F)CCC(F)(F)CC2)cc1F [Compound 10]"
  assayedSystem: "ERα (Homo sapiens)"
  readoutUnits: "%"
  testValue: 2
